# Test system: MCF-7 cells
# Protocol Summary: cells
# Details: Homo sapiens, MCF7, read-out: EC50, QPI, MCF-7 cell line; QPI growth rate
Measurement Name: pEC50
# reply with the number alone; pEC50 is -log10 of concentration in mol/L

O=c1[nH]cc(F)c(=O)[nH]1 [5FU, 5-Fluorouracil] : 4.59
COc1cccc2c1C(=O)c1c(O)c3c(c(O)c1C2=O)C[C@@](O)(C(=O)CO)C[C@@H]3O[C@H]1C[C@H](N)[C@H](O)[C@H](C)O1 [Doxorubicin] : 6.70
CC(=O)O[C@@]12CO[C@@H]1C[C@H](O)[C@@]1(C)C(=O)[C@H](O)C3=C(C)[C@@H](OC(=O)[C@H](O)[C@@H](NC(=O)OC(C)(C)C)c4ccccc4)C[C@@](O)([C@@H](OC(=O)c4ccccc4)[C@H]21)C3(C)C [Docetaxel] : 9.04
C[C@]12CC[C@@H]3c4ccc(O)cc4C[C@@H](CCCCCCCCC[S+]([O-])CCCC(F)(F)C(F)(F)F)[C@H]3[C@@H]1CC[C@@H]2O (stereo partly drawn) [Fulvestrant] : 6.70
CC[C@]1(O)C[C@@H]2CN(CCc3c([nH]c4ccccc34)[C@@](C(=O)OC)(c3cc4c(cc3OC)N(C)[C@H]3[C@@](O)(C(=O)OC)[C@H](OC(C)=O)[C@]5(CC)C=CCN6CC[C@]43[C@@H]65)C2)C1 [Vinblastine] : 6.52

Alright, here's another compound for you.
Need pEC50 of CS(=O)(=O)CCNCc1ccc(-c2ccc3ncnc(Nc4ccc(OCc5cccc(F)c5)c(Cl)c4)c3c2)o1 [Lapatinib] , thanks.
5.82
